molecular target: HLA-A2.1 (Homo sapiens, UniProt P04439, D140Y/D185E/D98H/E176V/E277Q/G131W/G231S/I119V/I121R/I166T/I218V/L300P/L318F/N151K/N90K/P208A/P217A/Q86G/Q94H/R138H/R169H/T345S); assay: T2 MHC class I peptide stabilization assay; type: cell-based; settings: 19 HER-2 peptides ranked by W6/32 MCF, 50 ug/ml
Measured Rank, W6/32 by item
value_kind: Rank, W6/32

> print(dat)
                                   substance   value.kind  quantitative.result
 1  E74: synthetic HER-2 peptide, residues 838-846 (DVRLVHRDL; UniProt P04626 838-846, looked up, fragment)  Rank, W6/32                   13
 2  E72: synthetic HER-2 peptide, residues 828-836 (QIAKGMSYL; UniProt P04626 828-836, looked up, fragment)  Rank, W6/32                   19
 3  E76: synthetic HER-2 peptide, residues 402-410 (TLEEITGYL; UniProt P04626 402-410, looked up, fragment)  Rank, W6/32                    5
 4  C85: synthetic HER-2 peptide, residues 971-979 (ELVSEFSRM; UniProt P04626 971-979, looked up, fragment)  Rank, W6/32                   14
 5  E92: synthetic HER-2 peptide, residues 650-658 (PLTSIISAV; UniProt P04626 650-658, looked up, fragment)  Rank, W6/32                    6
 6  E71: synthetic HER-2 peptide, residues 799-807 (QLMPYGCLL; UniProt P04626 799-807, looked up, fragment)  Rank, W6/32                   15
 7  D97: synthetic HER-2 octamer peptide, residues 42-49 (HLDMLRHL; UniProt P04626 42-49, looked up, fragment)  Rank, W6/32                   18
 8  E90: synthetic HER-2 peptide, residues 789-797 (CLTSTVQLV; UniProt P04626 789-797, looked up, fragment)  Rank, W6/32                    1
 9  E77: synthetic HER-2 peptide, residues 391-399 (PLQPEQLQV; UniProt P04626 391-399, looked up, fragment)  Rank, W6/32                   11
10  E73: synthetic HER-2 octamer peptide, residues 835-842 (YLEDVRLV; UniProt P04626 835-842, looked up, fragment)  Rank, W6/32                   10
11  E89: synthetic HER-2 peptide, residues 851-859 (VLVKSPNHV; UniProt P04626 851-859, looked up, fragment)  Rank, W6/32                    7
12  E70: synthetic HER-2 peptide, residues 793-801 (TVQLVTQLM; UniProt P04626 793-801, looked up, fragment)  Rank, W6/32                   17
13  D99: synthetic HER-2 decamer peptide, residues 1089-1098 (DLGMGAAKGL; UniProt P04626 1089-1098, looked up, fragment)  Rank, W6/32                   16
14  E78: synthetic HER-2 peptide, residues 457-465 (SLRELGSGL; UniProt P04626 457-465, looked up, fragment)  Rank, W6/32                   12
